Where do these numbers come from? They come from PubChem BioAssay (NCI).

- System: T-47D breast
- protocol notes: NCI tumour cell line growth inhibition, 48 h
I'd appreciate it if you could supply TGI values for the items below.
Report the figure in µM without appending any unit label.

Requested field: TGI. Item: "COc1cc([C@@H]2c3cc4c(cc3[C@@H](O[C@@H]3O[C@@H]5CO[C@@H](c6cccs6)O[C@H]5[C@H](O)[C@H]3O)[C@H]3COC(=O)[C@H]23)OCO4)cc(OC)c1O"
12.3

Form field: reported TGI of "O=C1/C(=C\c2coc3ccccc3c2=O)c2ccccc2N1c1c(Cl)cccc1Cl"
31.1

# TGI lookup, item "Oc1c(-c2ccccc2)sc2ccccc12"
54.4

Item "c1ccc2sc(C3(N4CCCCC4)CCCCCC3)cc2c1" has what recorded TGI?
31.6

Param item = COc1ccccc1S(=O)Nc1ccccc1 (stereo unspecified) ; retrieve measured TGI.
95.5

Tell me the measured TGI of C=C1CCC2C3(C)COC(c4ccc(SC)cc4)OC3CCC2(C)C1C/C=C1/C(=O)OCC1O (stereo unspecified) , please.
13.7

Tell me the measured TGI of "CCOc1ccc2c(ccc(/C=C\c3cc(C)c4cccnc4c3O)[n+]2C)c1" , please.
6.2

Suppose we examine the compound CC1C/C(=N\N(C)C)C(C#N)(C#N)C1(C#N)C#N (stereo unspecified) ; what TGI value has been reported?
37.7

* * *

- Tested on: K-562 leukemia
- protocol notes: NCI tumour cell line growth inhibition, 48 h
measured attribute: TGI (µM)
Numbers only; they are read as µM.

Quick one: TGI for CC(C)=CC(=O)OC1C2C(C)C(=O)OC2C(O)C(C)C2C=CC(=O)C21C (stereo not given) ?
25.3

TGI for "CCCCN(CCCC)CCCCNc1c(C)cnc2cc(Cl)ccc12" ?
43.3

Which TGI reading was recorded for the compound "[N-]=[N+]=Nc1c([N+](=O)[O-])c(Cl)nc2ccccc12" ?
1.74

Entry under review: "NC(=S)N1N=C2c3ccccc3CC[C@H]2[C@@H]1c1cccs1" . Reported TGI?
35.5

* * *

- System: ACHN renal
- protocol notes: NCI tumour cell line growth inhibition, 48 h; in the data active = GI50 below about 0.43 µM; inactive = the rest
The reply should name one outcome from active, inactive

Just curious, what result did "Cc1cc(-c2nc(-c3ccc(OC(F)(F)F)cc3)no2)nn1Cc1ccnc(N2CCN(C3CC3)CC2)c1" get here?
inactive

I'd appreciate the recorded outcome for "Clc1ccc(-c2nn3ncccc3c2-c2ccnc(Nc3ccccc3)n2)cc1" from this test.
inactive

Please share the test call associated with CC1OC(OC2CC(O)C3(CO)C4C(O)CC5(C)C(C6=CC(=O)OC6)CCC5(O)C4CCC3(O)C2)C(O)C(O)C1O (stereo not drawn) .
active

// return assay outcome for "C/C(=C\CCc1ccoc1)CC/C=C(\C)CCCN1CCC(CO)CC1"
inactive

Given "N#CN1CCC[C@H]1C(=O)N1CCc2c(-c3[nH]nc4ncccc34)cccc21" , state the outcome it received in this test.
active

Please share the test call associated with "C=C1C(=O)O[C@@H]2C[C@@H]1CC[C@@]1(C)O[C@@H]1CC[C@@]1(C)O[C@@H]1CC[C@@]2(C)O" .
inactive

Which outcome was entered for the compound CC(=O)OCC1OC(OC2=C(CC=C(Cl)Cl)C(=O)c3ccccc3C2=O)C(OC(C)=O)C(OC(C)=O)C1OC(C)=O (stereo not drawn) in this test?
inactive

Field: outcome | Entry: COc1cccc(C2C3=C(COC3=O)N(CCO)c3cc4c(cc32)OCCO4)c1 (stereo not drawn)
inactive

* * *

- Tested on: U251 CNS
- protocol notes: NCI tumour cell line growth inhibition, 48 h
measured attribute: TGI

# query: TGI of entry "CCCN(CCC)CCCNC(=O)c1cc2c(-c3ccc(OC)c(OC)c3)nn(C)c2s1"
> 100 µM

Could you share which TGI value was measured for COc1cc(C2CC(c3cc(C)ccc3C)=NN2c2ccc(S(=O)(=O)NC(=O)NCc3ccccc3)cc2)cc(OC)c1OC (centres undefined) ?
17.3 µM

Which measured TGI value corresponds to "O=C1c2ccccc2C(=O)N1CCCCCCNOCCCN1C(=O)c2ccccc2C1=O" ?
> 100 µM

Give the measured TGI of C=C1CC(Cn2cc(C)c(=O)[nH]c2=O)(c2ccc(-c3ccccc3)cc2)OC1=O (centres undefined) .
16.1 µM

Give its TGI value. Item: "COC(=NCCC1=CCCCC1)OC"
> 100 µM

Query (compound): CC[C@@H](C(=O)[C@@H](C)[C@@H](O)[C@H](C)[C@@H]1O[C@@H]([C@@H](CC)C(=O)O)CC[C@@H]1C)[C@H]1OC2(C=C[C@@H](O)[C@]3(CC[C@@](C)([C@H]4CC[C@](O)(CC)[C@H](C)O4)O3)O2)[C@H](C)C[C@@H]1C (some centres undefined) ; field requested: TGI
5.56 µM

Returns the measured TGI for the input compound. Input: CCN(CC)CCCC(Nc1c2ccc(Cl)cc2nc2ccc(OC)cc12)c1ccc(F)cc1 (centres undefined)
3.88 µM

// TGI lookup, key: COc1ccc(N2C(=O)/C(=C\c3cccc(Oc4ccccc4)c3)S(=O)(=O)C2c2ccccc2)cc1 (centres undefined)
> 100 µM

Fill blank: measured TGI of the compound "CC(C)N=C(NC#N)NS(=O)(=O)c1cnccc1Nc1ccc(Cl)cc1" is ____.
> 100 µM

For the compound shown here, CCN(CC)C(=S)SC1CCOP(=O)(N(CCCl)CCCl)N1C (centres undefined) , give the reported TGI.
> 52.5 µM

Please look up its TGI: "O=c1c2cc(Br)cc(Br)c2[nH]c(=S)n1-c1ccccc1"
> 100 µM

For the compound shown here, "CC(=O)OC(C)(C)N=Nc1ccc(Br)cc1" , give the reported TGI.
> 100 µM

Value lookup for TGI; key = "CC(C)(C)[Si](C)(C)O/N=C\c1ccc(O[Si](C)(C)C(C)(C)C)cc1"
61.7 µM

# query: TGI of entry "Cc1ccc(CS(=O)(=O)C/N=c2\sc3ccccc3nc2/C=C(\O)c2ccc(Cl)cc2)cc1"
> 10 µM

# get_value(readout='TGI', item= "COc1ccc(-c2cc(/C=C3\C(=O)Nc4ccc(OC)cc43)[nH]n2)cc1" )
> 100 µM

What TGI value was documented for this compound, Cc1ccc(-n2c(Cn3nnc(-c4cccnc4)n3)nn(C3OC(COC(=O)c4ccccc4)C(OC(=O)c4ccccc4)C3OC(=O)c3ccccc3)c2=S)cc1 (centres undefined) ?
> 100 µM

So what's the measured TGI for this one? CCC1CC(=O)N(SCC(N)C(=O)O)C1=O (centres undefined)
> 100 µM

Look up TGI for this compound: "O=C(c1cccs1)c1c(C(F)(F)F)n([O-])c2ccc(F)cc2[n+]1=O"
2.6 µM

Query (compound): "Oc1c(-c2ccccc2)sc2ccccc12" ; field requested: TGI
> 100 µM

* * *

Please respond with reported TGI for every item in the list.
- System: RXF 393 renal
- protocol notes: NCI tumour cell line growth inhibition, 48 h

Consider the compound shown here: "Cc1cc(NS(=O)(=O)c2ccc(NC(=O)c3cccc4c(Nc5ccc(S(=O)(=O)Nc6cc(C)on6)cc5)c5ccccc5nc34)cc2)no1" What is its recorded TGI?
61.5 µM

Consider the compound "O=[N+]([O-])c1cccc2nc3ccccc3c(NCCCN3CCOCC3)c12" and give its measured TGI.
0.0294 µM

Entry under review: "COc1ccc(-c2cc(/C=C3\C(=O)Nc4ccc(OC)cc43)[nH]n2)cc1" . Reported TGI?
> 100 µM

Given CCOC(=O)C1=C(C)NC2SC(=O)/C(=C\c3ccccc3)N2C1c1ccccc1 (centres undefined) , state its recorded TGI.
> 100 µM

Any idea what TGI was measured for "N#CC(C#N)=CSc1ccccc1" ?
45.2 µM

What value of measured TGI is listed for COP1(=O)NCc2ncccc2O1 (centres undefined) ?
> 100 µM

Using the record for "CC(=O)O[C@H]1CC[C@@]2(C)C(=CC[C@@H]3[C@@H]2CC[C@]2(C)C(=N/O)/C(=C/c4ccc([N+](=O)[O-])cc4)C[C@@H]32)C1" , report its TGI.
> 100 µM

Tell me the measured TGI of "CN1CCN(C(=S)N(C(=O)c2ccco2)c2ccccc2)CC1" , please.
> 100 µM

Return reported TGI; argument: "Cc1cc2c(cc1C)[n+](=O)c(C(=O)N1CCN(c3ccc([N+](=O)[O-])cc3)CC1)c(C)n2[O-]"
41.3 µM

* * *

- System: NCI-H460 lung
Classes to choose from: active, inactive

Can you look up the reported call for "COC(=O)[C@H](CC(C)C)NC(=O)NC(=O)NC(=O)CI" for me?
inactive

For "CCCN(CCC)CCCNC(=O)c1cc2c(-c3ccc(OC)c(OC)c3)nn(C)c2s1" , what call appears in the results of this test?
inactive

Status in this test for "C/C(=C\CCc1ccoc1)CC/C=C(\C)CCCN1CCC(CO)CC1" ?
inactive

What did this assay record as the result for "Oc1cc(O)c2c(=S)cc(-c3ccc(Cl)cc3)oc2c1" ?
inactive

Test call, this molecule: "N#Cc1cccc(NC(=O)c2oc3ccccc3c2-c2cnn(-c3ccccc3)c2)c1"
inactive

What outcome does the record of this test show for "CC1=C(/C=C/C(C)=C/C=C/C(C)=C/C(=O)Nc2ccc(O)cc2)C(C)(C)CCC1" ?
inactive

Please indicate how the test categorized "CCC[CH2][Sn]([CH2]CCC)([O]C(=O)c1nccnc1N)[O]C(=O)c1nccnc1N" .
inactive

Called result for CNC(C)C(=O)N[C@H](C(=O)N1CCC[C@@H]1CN(CCc1ccccc1)C(=O)C(F)(F)F)[C@H](C)OCC#CC#CCO[C@H](C)[C@H](NC(=O)[C@H](C)NC)C(=O)N1CCC[C@H]1CN(CCc1ccccc1)C(=O)C(F)(F)F (some centres not stated)
inactive

So what was the verdict on "N#Cc1c(NC(=O)CN2CCOCC2)sc2c1CCCC2" in this test?
inactive

How did this test come out for "COc1ccc(C2=C(c3cc(OC)c(OC)c(OC)c3)C(=O)CC2)cc1" ?
active

Which outcome was assigned to "N#Cc1c(-c2ccccc2)cc(-c2ccccc2)n(CCCCC(=O)NO)c1=O" in this test?
inactive

Assay result, entry "O=C1c2ccccc2-c2c1c1ccccc1c(=O)n2CCCN1CCN(CCCn2c3c(c4ccccc4c2=O)C(=O)c2ccccc2-3)CC1" — outcome?
inactive

Record request — test call for COc1cc(C2CC(c3cc(C)ccc3C)=NN2c2ccc(S(=O)(=O)NC(=O)NCc3ccccc3)cc2)cc(OC)c1OC (configuration not stated)
inactive

Outcome? "O=C(c1cccs1)c1c(C(F)(F)F)n([O-])c2ccc(F)cc2[n+]1=O"
inactive

Recorded call for CCN(CC)CCCC(Nc1c2ccc(Cl)cc2nc2ccc(OC)cc12)c1ccc(F)cc1 (configuration not stated) ?
inactive

Called result for "COc1ccc(/C=C\c2cc(OC)c(OC)c(OC)c2)cc1OC(=O)c1cccc(Cn2cc(CCOC(=O)c3cccc(Cn4nnc5c4C(=O)c4ccccc4C5=O)c3)nn2)c1"
active

Any idea what this test logged for "COc1cc2c3c(n(C)c(=O)c2cc1OC)-c1cc2c(cc1/C3=C\CCCBr)OCO2" ?
inactive
